Ki values recorded for FKBP12 (Homo sapiens)

Compound Structure String: CCOCc1cccc(COCC)c1-c1csc([C@@H](CCN2CCOCC2)OC(=O)[C@@H]2CCCCN2C(=O)C(=O)C(C)(C)C)c1
Ki: > 5 µM
--
Compound Structure String: C=CCC/C=C(/c1cccnc1)c1ccc([C@@H](OC(=O)[C@@H]2CCCCN2C(=O)C(=O)C(C)(C)COC)/C(C)=C/C2CCN(C)CC2)s1
Ki: > 10 µM
--
Compound Structure String: CCCC/C=C(/c1cccnc1)c1cccc([C@@H](CCCc2ccccc2)OC(=O)[C@@H]2CCCCN2C(=O)C(=O)c2cc(OC)c(OC)c(OC)c2)c1
Ki: < 0.001 µM

Ref: patent US5935954A
